From: patent US10017507B2

PDE1A (Homo sapiens, UniProt P54750) data, read-out pIC50
pIC50: −log10 of the molar value.

// query Dear colleague, please send me the reported pIC50 for CC[C@@]12C=C(C(O)C(F)(F)F)n3c4c(c5ccccc53)CCN(CCC1)[C@H]42 (stereo partly drawn) when you can.
// result < 4.00

// query Please look at this molecule and report its pIC50: CC[C@@]12C=C(c3nc(C)c(C)o3)n3c4c(c5c(S(=O)(=O)NC)cccc53)CCN(CCC1)[C@H]42
// result 4.70 to 6.00

// query Note pIC50 for the molecule shown: CC[C@@]12C=C(C3=N[C@@H](C)CO3)n3c4c(c5ccccc53)CCN(CCC1)[C@H]42
// result 4.00 to 4.70

// query Hello, please tell me recorded pIC50 for this one: CCC/C(=N\OC)C1=C[C@]2(CC)CCCN3CCc4c(n1c1ccccc41)[C@@H]32
// result 4.70 to 6.00

// query Give the measured pIC50 for CC[C@@]12C=C(c3nc(C)c(C)s3)n3c4c(c5ccccc53)CCN(CCC1)[C@H]42
// result 4.70 to 6.00

// query Using known records, supply pIC50 for CC[C@@]12C=C(c3nc(C)c(C)o3)n3c4c(c5cc(S(=O)(=O)NCCCOC)ccc53)CCN(CCC1)[C@H]42
// result 4.00 to 4.70
